target: T1, KEA peptide complexed with HLA-A*02:01 on T2 cells (human); test: flow cytometry, peptide-loaded T2 cells;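 note: binding of single-chain Fv antibody constructs, raised in XenoMouse, to peptide-pulsed T2 cells measured by flow cytometry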
T1 construct: whole, on cells

Binder	Signal/background
18089-D11 (scFv, scFv in bacterial lysate, detected with anti-Flag M2) scFv: EVQLLESGPVLVKPTQTLTLTCTFSGFSFTTHKMGVDWIRQPPGKALEWLALIYWNDDKRYNPSLQSRLTITKDTSKNQVVLTMTNMDPVDTATYYCAYRRYNWNYENWFDPWGQGTLVTVSSGGGGSGGGGSGGGGSELVMTQSPSSLSASVGDRVTITCRASQSISNYFNWYQQKPGKAPKLLIYAASSLQSGVPSRFSGSGSGTDFTLTISSLQPEDFATYYCQQSYITPFTFGGGTKLEIK	1
